# targetOrSystem: T1, cynomolgus monkey latent myostatin (cynomolgus monkey, UniProt Q95J86 25-266; Q95J86 267-375, limits assumed)
# T1 construct: also called cyno latent myostatin
# T1 sequence 1: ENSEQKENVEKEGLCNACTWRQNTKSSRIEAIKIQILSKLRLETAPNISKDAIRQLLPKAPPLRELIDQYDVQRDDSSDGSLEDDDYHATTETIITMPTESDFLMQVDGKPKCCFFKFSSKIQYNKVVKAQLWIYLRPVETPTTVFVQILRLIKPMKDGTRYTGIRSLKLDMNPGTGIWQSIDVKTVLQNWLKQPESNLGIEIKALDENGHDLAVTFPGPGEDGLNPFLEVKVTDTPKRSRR
# T1 sequence 2: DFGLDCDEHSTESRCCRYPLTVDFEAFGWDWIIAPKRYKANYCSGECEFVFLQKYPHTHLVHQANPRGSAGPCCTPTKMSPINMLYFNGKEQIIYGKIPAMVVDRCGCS
# method: SPR 37C
propertyName: ratio of KD at pH 5.8/pH7.4
Give your answer as a number; write no unit.

Please review the following examples before continuing.
| binder | ratio of KD at pH 5.8/pH7.4 |
| --- | --- |
| MS_M103205H795-SG1/M103202L1060-SK1 (antibody, human IgG1, kappa, V domains shown, also called MS1032LO24-SG1) VH: QVTLKESGPVLVKPTETLTLTCTVSGIDLSHDDISWVRQAPGKGLEWVGIISYAGSTYYASWAKGRLTISKDTSKNQVVLTMTNMDPVDTATYYCARGVPAYSHGGDLWGQGTLVTVSS VL: DIVMTQSPATLSLSPGERATLSCTSSQSVFHENWLSWFQQKPGQPPKLLIYWASTLAWGVPSRFSGSGSGTDFTLTISSLQPEDAATYYCAGGYGGGRYAFGQGTKVEIKR | 5 |
| MS_M103205H1057-SG1/M103202L889-SK1 (antibody, human IgG1, kappa, V domains shown, also called MS1032LO12-SG1) VH: QVTLKESGPVLVKPTETLTLTCTVSGIDLSHTDISWVRQAPGKGLEWVGIISYAGSKYKASWAKGRLTISKDTSKNQVVLTMTNMDPVDTATYYCARGVPAYSHGGDLWGQGTLVTVSS VL: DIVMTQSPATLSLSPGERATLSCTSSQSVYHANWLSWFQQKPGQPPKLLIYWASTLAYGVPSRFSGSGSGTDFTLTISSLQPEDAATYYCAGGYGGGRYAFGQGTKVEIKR | 73 |

q: Input MS_M103205H1047-SG1/M103202L889-SK1 (antibody, human IgG1, kappa, V domains shown, also called MS1032LO11-SG1) VH: QVTLKESGPVLVKPTETLTLTCTVSGIDLSHTDISWVRQAPGKGLEWVGIISYAGKKYYASWAKGRLTISKDTSKNQVVLTMTNMDPVDTATYYCARGVPAYSHGGDLWGQGTLVTVSS VL: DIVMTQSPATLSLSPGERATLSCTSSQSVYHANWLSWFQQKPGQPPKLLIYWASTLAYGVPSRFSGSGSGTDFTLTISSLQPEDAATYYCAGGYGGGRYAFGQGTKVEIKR , output reported ratio of KD at pH 5.8/pH7.4.
a: 87
